Data credit: patent US20260069689A1

- TESTED_TARGET: SARS-COV-2 RBD extracellular domain expressed with a C-terminal myc-myc-hexahistidine tag (SARS-COV-2 RBD-mmH) (SARS-CoV-2)
- PROCEDURE_DETAILS: SPR Biacore, mAb captured on anti-hFc, RBD-mmH analyte, 37 C
Lab note: anything with Kd below 1 nM is marked criterion met; values at 1 nM or higher are marked criterion not met.

INSERT INTO results (binder, category_label) VALUES
  ('mAb14230 (antibody, V domains shown) VH: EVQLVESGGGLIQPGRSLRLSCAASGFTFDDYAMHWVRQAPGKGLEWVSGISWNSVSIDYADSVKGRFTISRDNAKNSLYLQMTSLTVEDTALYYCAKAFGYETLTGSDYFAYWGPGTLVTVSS VL: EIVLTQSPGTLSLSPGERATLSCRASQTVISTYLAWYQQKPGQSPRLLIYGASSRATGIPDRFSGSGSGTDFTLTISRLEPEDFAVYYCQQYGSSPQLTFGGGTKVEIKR', 'criterion not met'),
  ('mAb14280 (antibody, V domains shown) VH: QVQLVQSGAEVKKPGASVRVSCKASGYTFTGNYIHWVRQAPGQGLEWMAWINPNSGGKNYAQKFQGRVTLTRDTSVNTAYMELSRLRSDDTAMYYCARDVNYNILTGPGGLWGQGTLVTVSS VL: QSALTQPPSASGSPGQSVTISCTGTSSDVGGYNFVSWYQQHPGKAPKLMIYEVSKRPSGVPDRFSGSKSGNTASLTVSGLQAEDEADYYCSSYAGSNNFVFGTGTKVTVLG', 'criterion not met');

Inquiry: Please state whether Kd is below 1 nM for mAb14247 (antibody, V domains shown) VH: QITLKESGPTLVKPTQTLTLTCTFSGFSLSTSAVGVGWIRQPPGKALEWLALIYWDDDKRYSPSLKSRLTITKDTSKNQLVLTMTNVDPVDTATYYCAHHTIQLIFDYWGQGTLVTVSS VL: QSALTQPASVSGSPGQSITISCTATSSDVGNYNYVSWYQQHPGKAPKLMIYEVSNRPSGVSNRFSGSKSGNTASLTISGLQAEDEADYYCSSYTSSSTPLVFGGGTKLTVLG
Reply text: criterion not met

Inquiry: Please state whether Kd is below 1 nM for mAb14312 (antibody, V domains shown) VH: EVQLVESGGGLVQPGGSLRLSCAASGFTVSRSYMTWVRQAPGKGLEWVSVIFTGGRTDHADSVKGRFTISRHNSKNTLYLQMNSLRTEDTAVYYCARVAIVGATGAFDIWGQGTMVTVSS VL: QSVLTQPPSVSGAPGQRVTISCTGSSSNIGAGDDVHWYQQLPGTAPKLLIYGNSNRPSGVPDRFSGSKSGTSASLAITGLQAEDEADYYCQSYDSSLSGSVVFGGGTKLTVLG
Reply text: criterion met

Inquiry: Please state whether Kd is below 1 nM for mAb15159 (antibody, V domains shown) VH: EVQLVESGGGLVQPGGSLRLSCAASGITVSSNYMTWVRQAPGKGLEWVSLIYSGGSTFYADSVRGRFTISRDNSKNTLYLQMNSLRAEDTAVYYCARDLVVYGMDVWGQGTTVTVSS VL: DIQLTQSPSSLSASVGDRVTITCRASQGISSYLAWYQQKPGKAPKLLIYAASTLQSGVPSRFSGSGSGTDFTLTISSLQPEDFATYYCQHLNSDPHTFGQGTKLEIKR
Reply text: criterion not met
